test system: DLD1 NRF2-WT; experiment: drug sensitivity score (DSS) viability (DSS score); higher = more sensitive; extreme values may be limits of the assay; conditions: 72 h; CellTiter-Glo viability
just bin them by drug sensitivity score: bottom range = under 3, center range = from 3 up to 9, top range = 9 and over

CC#CC(=O)N1CCC[C@H]1c1nc(-c2ccc(C(=O)Nc3ccccn3)cc2)c2c(N)nccn12 = bottom range
CN[C@@H](C)C(=O)N[C@H]1CN(C(=O)CC(C)C)CC[C@H]2CC[C@@H](C(=O)NC(c3ccccc3)c3ccccc3)N2C1=O = bottom range
C/C(=C\c1csc(C)n1)[C@@H]1C[C@@H]2O[C@]2(C)CCC[C@H](C)[C@H](O)[C@@H](C)C(=O)C(C)(C)[C@@H](O)CC(=O)N1 [Ixabepilone] = center range
N#Cc1ccc(COC[C@H]2O[C@@H](n3c(NCc4ccc(Cl)c(Cl)c4)nc4c(N)ncnc43)[C@H](O)[C@@H]2O)cc1 = center range
COc1cccc(OCCCN)c1-c1cc(Nc2cnc(C#N)cn2)n[nH]1 = top range
O=c1[nH]c(=O)n([C@H]2C[C@H](O)[C@@H](CO)O2)cc1C(F)(F)F = bottom range
CC[C@@]1(O)C(=O)OCc2c1cc1n(c2=O)Cc2cc3c(CN(C)C)c(O)ccc3nc2-1 = center range
CC1(COc2ccc3c(c2)ncn3-c2ccc3cccc(N4CCC(N)CC4)c3n2)COC1 = top range
COC[C@H](NC(=O)c1cnc(C)s1)C(=O)N[C@@H](COC)C(=O)N[C@@H](Cc1ccccc1)C(=O)[C@@]1(C)CO1 = top range
O=C(Nc1cccc(NC(=O)c2cccc(O)c2O)c1)c1cccc(O)c1O = top range
Nc1nc(N)c2nc(-c3cccc(O)c3)c(-c3cccc(O)c3)nc2n1 = center range
Cc1ccc(C(=O)Nc2ccc(CN3CCN(C)CC3)c(C(F)(F)F)c2)cc1C#Cc1cnc2cccnn12 = center range
CCCc1cc(C)[nH]c(=O)c1CNC(=O)c1cc(-c2ccnc(N3CCN(C)CC3)c2)cc2c1cnn2C(C)C = bottom range

###

test system: DLD1 NRF2-WT; settings: 72 h; CellTiter-Glo viability
quantity.kind: EC50 viability (nM)

COc1cc(Br)c(Nc2nc(-c3c(C)nc4ncccn34)cs2)c(Br)c1 [PTC-209] = 464
CO[C@H](C(=O)[C@@H](O)[C@@H](C)O)[C@@H]1Cc2cc3cc(O[C@H]4C[C@@H](O[C@H]5C[C@@H](O)[C@H](O)[C@@H](C)O5)[C@@H](O)[C@@H](C)O4)c(C)c(O)c3c(O)c2C(=O)[C@H]1O[C@H]1C[C@@H](O[C@H]2C[C@@H](O[C@H]3C[C@](C)(O)[C@H](O)[C@@H](C)O3)[C@H](O)[C@@H](C)O2)[C@H](O)[C@@H](C)O1 [Plicamycin] = 119
CCS(=O)(=O)c1cccc(-c2cc(C(=O)NC3CCN(C)CC3)c(C)c3[nH]c4ncc(C)cc4c23)c1 [TAK-901] = 108
COc1cc(N2CCN(C)CC2)ccc1Nc1nccc(-c2cn(C)c3cnccc23)n1 [AZ191] = 1590
CC[C@@H]1C(=O)N(C)c2cnc(Nc3ccc(C(=O)NC4CCN(C)CC4)cc3OC)nc2N1C1CCCC1 [BI 2536] = 5.2
Nc1ncnc2c1nc(Cl)n2[C@@H]1O[C@H](CO)[C@@H](O)[C@H]1O [8-chloro-adenosine] = 1150
C=CC[C@@H]1/C=C(\C)C[C@H](C)C[C@H](OC)[C@H]2O[C@@](O)(C(=O)C(=O)N3CCCC[C@H]3C(=O)O[C@H](/C(C)=C/[C@@H]3CC[C@@H](O)[C@H](OC)C3)[C@H](C)[C@@H](O)CC1=O)[C@H](C)C[C@@H]2OC [Tacrolimus] = 933
C/C(=C\c1csc(C)n1)[C@@H]1C[C@@H]2O[C@]2(C)CCC[C@H](C)[C@H](O)[C@@H](C)C(=O)C(C)(C)[C@@H](O)CC(=O)N1 [Ixabepilone] = 407
O=c1[nH]cc(F)c(=O)[nH]1 [Fluorouracil] = 1
C=CC(=O)N1CC/C(=C\c2ccc(F)c([N+](=O)[O-])c2)C(=O)/C(=C/c2ccc(F)c([N+](=O)[O-])c2)C1 [VLX1570] = 50.4
CC(C)[C@H](C(=O)Nc1ccc(C(=O)NO)cc1)c1ccccc1 [AR-42] = 1260

###

test system: DLD1 NRF2-GOF; experiment: drug sensitivity score (DSS) cytotoxicity (DSS score); higher = more toxic; extreme values may be limits of the assay; conditions: 72 h; CellTox Green cytotoxicity
quantity.kind: drug sensitivity score

CC1(C)CCC(c2ccc(Cl)cc2)=C(CN2CCN(c3ccc(C(=O)NS(=O)(=O)c4ccc(N[C@H](CCN5CCOCC5)CSc5ccccc5)c(S(=O)(=O)C(F)(F)F)c4)cc3)CC2)C1 = 2.1
COc1c(OCCCN2CCOCC2)ccc2c1N=C(NC(=O)c1cnc(N)nc1)N1CCN=C21 = 0
COc1cc2c(Oc3ccc(NC(=O)C4(C(=O)Nc5ccc(F)cc5)CC4)cc3F)ccnc2cc1OCCCN1CCOCC1 = 6.3
CCn1cc(-c2ccnc3[nH]c(-c4cccc(CN(C)C)c4)cc23)c(-c2ccc(NC(=O)N(C)C)cc2)n1 = 1.6
C[C@@H](Oc1ccc2[nH]nc(/C=C/c3cnn(CCO)c3)c2c1)c1c(Cl)cncc1Cl = 0
CCn1c(-c2nonc2N)nc2c(C#CC(C)(C)O)ncc(OC[C@H]3CCCNC3)c21 = 0
CC(C)(C)c1cc(NC(=O)Nc2ccc(Oc3ccnc4[nH]c(=O)cnc34)cc2F)n(-c2ccccc2)n1 = 0

###

system: DLD1 NRF2-GOF; assay: drug sensitivity score (DSS) cytotoxicity (DSS score); higher = more toxic; extreme values may be limits of the assay; details: 72 h; CellTox Green cytotoxicity
quantity.kind: drug sensitivity score

COc1ccc(-c2ccc3ncc4c(c3c2)n(-c2ccc(N3CCNCC3)c(C(F)(F)F)c2)c(=O)n4C)cn1 [NVP-BGT226] = 4.1
CC1(C)NC(=O)N(c2ccc([N+](=O)[O-])c(C(F)(F)F)c2)C1=O [Nilutamide] = 0
CN1CCC(COc2cnc(-c3cccc(Cn4nc(-c5cccc(C#N)c5)ccc4=O)c3)nc2)CC1 [Tepotinib] = 0
CC[C@H](NC(=O)[C@H](C)NC)C(=O)N1C[C@@H](O)C[C@H]1Cc1c(-c2[nH]c3cc(F)ccc3c2C[C@@H]2C[C@H](O)CN2C(=O)[C@H](CC)NC(=O)[C@H](C)NC)[nH]c2cc(F)ccc12 [Birinapant] = 0

###

tested on: DLD1 NRF2-WT; settings: 72 h; CellTiter-Glo viability
EC50 viability less than 0.5 µM is T; EC50 viability greater than or equal to 0.5 µM is F.

Clc1ccc(C(c2ccccc2Cl)C(Cl)Cl)cc1 (stereo unspecified) [Mitotane] = F
CCCCc1nc2cc(/C=C/C(=O)NO)ccc2n1CCN(CC)CC [Pracinostat] = F
COc1cc(N2CCC(N3CCN(C)CC3)CC2)ccc1Nc1ncc(Cl)c(Nc2ccccc2P(C)(C)=O)n1 [Brigatinib] = T
C[C@H]1C=C2C(=O)O[C@H]3CC[C@@H](C1)[C@@]23O [Galiellalactone] = F
Cc1cc([C@@H](C)Nc2ccccc2C(=O)O)c2nc(N3CCOCC3)cc(=O)n2c1 [AZD-6482] = F
Cc1cnc(NC(=O)Nc2cc(Br)c(C)cc2OC[C@@H]2CNCCO2)cn1 [Rabusertib] = F
CCn1c(-c2nonc2N)nc2c(C#CC(C)(C)O)ncc(OC[C@H]3CCCNC3)c21 = F
Cc1cn(-c2cc(NC(=O)c3ccc(C)c(Nc4nccc(-c5cccnc5)n4)c3)cc(C(F)(F)F)c2)cn1 [Nilotinib] = F
O=C(Nc1nc2cccc(-c3ccc(CN4CCS(=O)(=O)CC4)cc3)n2n1)C1CC1 [Filgotinib] = F
OC[C@H]1O[C@@H](n2cnc3c2N=CNC[C@H]3O)C[C@@H]1O [Pentostatin] = F
CC(C)(O)CC(=O)NCCn1ccc2ncnc(Nc3ccc(Oc4cccc(C(F)(F)F)c4)c(Cl)c3)c21 [TAK-285] = T
C#Cc1cccc(Nc2ncnc3cc4c(cc23)OCCOCCOCCO4)c1 [Icotinib] = F
NC(=O)Nc1cc(-c2cccc(F)c2)sc1C(=O)N[C@H]1CCCNC1 [AZD7762] = T
C=CC(=O)Nc1cc2c(Nc3ccc(F)c(Cl)c3)ncnc2cc1OCCCN1CCOCC1 [Canertinib] = F
CC(=O)O[C@H]1C(=O)[C@@]2(C)[C@H]([C@H](OC(=O)c3ccccc3)[C@]3(O)C[C@H](OC(=O)[C@H](O)[C@@H](NC(=O)c4ccccc4)c4ccccc4)C(C)=C1C3(C)C)[C@]1(OC(C)=O)CO[C@@H]1C[C@@H]2O [Paclitaxel] = T

###

Measured drug sensitivity score of individual entries
test system: DLD1 NRF2-WT; experiment: drug sensitivity score (DSS) viability (DSS score); higher = more sensitive; extreme values may be limits of the assay; details: 72 h; CellTiter-Glo viability
quantity.kind: drug sensitivity score

COC(=O)N[C@@H](C)CNc1nccc(-c2cn(C(C)C)nc2-c2cc(Cl)cc(NS(C)(=O)=O)c2F)n1 = 1.1
Cc1cc(-c2nc(-c3ccc(OC(F)(F)F)cc3)no2)nn1Cc1ccnc(N2CCN(C3CC3)CC2)c1 = 16.2
CC(C)n1cnc2c(NCCc3ccc(O)cc3)nc(-c3csc4ccccc34)nc21 = 3.9
COc1cccc2c1C(=O)c1c(O)c3c(c(O)c1C2=O)C[C@@](O)(C(=O)CO)C[C@@H]3O[C@H]1C[C@H](N)[C@H](O)[C@H](C)O1 = 8.1
O=C1Cc2cc(C(=O)NC3C[C@H]4CC[C@@H](C3)N4S(=O)(=O)CC3CCN(CCCC(F)(F)F)CC3)c(Cl)cc2N1 (stereo partly specified) = 0
COc1cc(Nc2ncc(F)c(Nc3ccc4c(n3)N(COP(=O)(O)O)C(=O)C(C)(C)O4)n2)cc(OC)c1OC = 6.2
Cc1ccc(=O)n(-c2ccccc2)c1 = 0
N#Cc1ccnc(N2C(=O)CC[C@H]2C(=O)N(c2cncc(F)c2)[C@H](C(=O)NC2CC(F)(F)C2)c2ccccc2Cl)c1 = 0.5
COc1cc2nccc(Oc3ccc(NC(=O)Nc4cc(C)on4)c(Cl)c3)c2cc1OC = 3.1
COCCNCc1ccc(-c2cc3nccc(Oc4ccc(NC(=O)C5(C(=O)Nc6ccc(F)cc6)CC5)cc4F)c3s2)nc1 = 4.6
CCc1cncnc1N1CCN(Cc2nc3cc(C(F)(F)F)ccc3[nH]2)CC1 = 4.6
COc1cc2c(Oc3ccc4[nH]c(C)cc4c3F)ncnc2cc1OCCCN1CCCC1 = 7
CC(C)c1c(C(=O)Nc2ccccc2)c(-c2ccccc2)c(-c2ccc(F)cc2)n1CC[C@@H](O)C[C@@H](O)CC(=O)O = 2.5
Cc1sc2c(c1C)C(c1ccc(Cl)cc1)=N[C@@H](CC(=O)OC(C)(C)C)c1nnc(C)n1-2 = 8.8
COc1cc(Br)c(Nc2nc(-c3c(C)nc4ncccn34)cs2)c(Br)c1 = 10.8
CC(C)NC(=O)COc1cccc(-c2nc(Nc3ccc4[nH]ncc4c3)c3ccccc3n2)c1 = 1.8
